Reported Percent anti-inflammatory activity after 3 hrs values are given for each entry in this list.
System: ovalbumin-induced systemic edema
MEASUREMENT_PROTOCOL: Ovalbumin-induced systemic edema (anti-inflammatory activity)
Assay type: in vivo
APPLIED_CONDITIONS: rats, 100 mg/kg orally 1 hour before and simultaneously with ovalbumin; 3 hrs; vs reference group
Numbers only here, please. The scale is %.

Below, 3 compounds whose answers are already recorded.
>>> reading("Cc1ncc(O)c2ccsc12 [Derivative No. 3, 4-hydroxy-7-methyl-thieno[2,3-c]pyridine]")
61
>>> reading("Cc1cc2c(O)cncc2s1 [Derivative No. 4, 4-hydroxy-2-methyl-thieno[2,3-c]pyridine]")
60
>>> reading("Oc1cncc2sccc12 [Derivative No. 2, 4-hydroxy-thieno[2,3-c]pyridine]")
58

Consider the additional compound presented here.
Enquiry: Given the entry Oc1cncc2ccsc12 [Derivative No. 1, 7-hydroxy-thieno[3,2-c]pyridine] , what Percent anti-inflammatory activity after 3 hrs was observed with ovalbumin-induced systemic edema?
Return: 50

====

Tested on: localized carrageenin-induced edema
MEASUREMENT_PROTOCOL: Localized carrageenin-induced edema (anti-inflammatory activity)
Format: in vivo
APPLIED_CONDITIONS: rats, 100 mg/kg orally 1 hour before, at, and 1 and 2.5 hours after carrageenin; 5 hrs; vs reference group
Reported Percent anti-inflammatory activity after 5 hrs values are given for each entry in this list.
Numbers only here, please. The scale is %.

Enquiry: Given the entry Oc1cncc2ccsc12 [Derivative No. 1, 7-hydroxy-thieno[3,2-c]pyridine] , what Percent anti-inflammatory activity after 5 hrs was observed with localized carrageenin-induced edema?
Return: 49

Enquiry: And then Cc1ncc(O)c2ccsc12 [Derivative No. 3, 4-hydroxy-7-methyl-thieno[2,3-c]pyridine] , what is it?
Return: 51

Enquiry: And then Cc1cc2c(O)cncc2s1 [Derivative No. 4, 4-hydroxy-2-methyl-thieno[2,3-c]pyridine] , what is it?
Return: 52

Enquiry: And then Oc1cncc2sccc12 [Derivative No. 2, 4-hydroxy-thieno[2,3-c]pyridine] , what is it?
Return: 49

====

Reported Percent anti-inflammatory activity after 1 hr values are given for each entry in this list.
Tested on: localized carrageenin-induced edema
MEASUREMENT_PROTOCOL: Localized carrageenin-induced edema (anti-inflammatory activity)
Type: in vivo
APPLIED_CONDITIONS: rats, 100 mg/kg orally 1 hour before, at, and 1 and 2.5 hours after carrageenin; 1 hr; vs reference group
Numbers only here, please. The scale is %.

Below, 3 molecules whose answers are already recorded.
>>> reading("Cc1ncc(O)c2ccsc12 [Derivative No. 3, 4-hydroxy-7-methyl-thieno[2,3-c]pyridine]")
42
>>> reading("Oc1cncc2ccsc12 [Derivative No. 1, 7-hydroxy-thieno[3,2-c]pyridine]")
43
>>> reading("Cc1cc2c(O)cncc2s1 [Derivative No. 4, 4-hydroxy-2-methyl-thieno[2,3-c]pyridine]")
45

Consider the additional molecule presented here.
Enquiry: Item under review: Oc1cncc2sccc12 [Derivative No. 2, 4-hydroxy-thieno[2,3-c]pyridine] . Reported Percent anti-inflammatory activity after 1 hr?
Return: 40

meta.source: patent US4496568A
